Data origin, for the record: paper PMC9753112

tested on: MCF-7 cells; assay: MTT cytotoxicity assay, MCF-7 cells; type: cell-based; conditions: against MCF-7 and HepG2 cells
Property name: cytotoxicity in words

{"Molecule": "CC(O)CSc1nnc(-c2cc3ccccc3[nH]2)n1-c1ccc(Cl)cc1 (stereo not shown) [13b]", "Property name": "cytotoxicity in words", "Value measured": "potent cytotoxicity"}
{"Molecule": "CC(O)CSc1nnc(-c2cc3ccccc3[nH]2)n1-c1ccccc1 (stereo not shown) [13a]", "Property name": "cytotoxicity in words", "Value measured": "moderate activity"}
{"Molecule": "OCCSc1nnc(-c2cc3ccccc3[nH]2)n1-c1ccc(Cl)cc1 [12b]", "Property name": "cytotoxicity in words", "Value measured": "potent cytotoxicity"}
{"Molecule": "OCCSc1nnc(-c2cc3ccccc3[nH]2)n1-c1ccccc1 [12a]", "Property name": "cytotoxicity in words", "Value measured": "moderate activity"}

---

target: EGFR (Homo sapiens, UniProt P00533)
Sequence (P00533 25-1210): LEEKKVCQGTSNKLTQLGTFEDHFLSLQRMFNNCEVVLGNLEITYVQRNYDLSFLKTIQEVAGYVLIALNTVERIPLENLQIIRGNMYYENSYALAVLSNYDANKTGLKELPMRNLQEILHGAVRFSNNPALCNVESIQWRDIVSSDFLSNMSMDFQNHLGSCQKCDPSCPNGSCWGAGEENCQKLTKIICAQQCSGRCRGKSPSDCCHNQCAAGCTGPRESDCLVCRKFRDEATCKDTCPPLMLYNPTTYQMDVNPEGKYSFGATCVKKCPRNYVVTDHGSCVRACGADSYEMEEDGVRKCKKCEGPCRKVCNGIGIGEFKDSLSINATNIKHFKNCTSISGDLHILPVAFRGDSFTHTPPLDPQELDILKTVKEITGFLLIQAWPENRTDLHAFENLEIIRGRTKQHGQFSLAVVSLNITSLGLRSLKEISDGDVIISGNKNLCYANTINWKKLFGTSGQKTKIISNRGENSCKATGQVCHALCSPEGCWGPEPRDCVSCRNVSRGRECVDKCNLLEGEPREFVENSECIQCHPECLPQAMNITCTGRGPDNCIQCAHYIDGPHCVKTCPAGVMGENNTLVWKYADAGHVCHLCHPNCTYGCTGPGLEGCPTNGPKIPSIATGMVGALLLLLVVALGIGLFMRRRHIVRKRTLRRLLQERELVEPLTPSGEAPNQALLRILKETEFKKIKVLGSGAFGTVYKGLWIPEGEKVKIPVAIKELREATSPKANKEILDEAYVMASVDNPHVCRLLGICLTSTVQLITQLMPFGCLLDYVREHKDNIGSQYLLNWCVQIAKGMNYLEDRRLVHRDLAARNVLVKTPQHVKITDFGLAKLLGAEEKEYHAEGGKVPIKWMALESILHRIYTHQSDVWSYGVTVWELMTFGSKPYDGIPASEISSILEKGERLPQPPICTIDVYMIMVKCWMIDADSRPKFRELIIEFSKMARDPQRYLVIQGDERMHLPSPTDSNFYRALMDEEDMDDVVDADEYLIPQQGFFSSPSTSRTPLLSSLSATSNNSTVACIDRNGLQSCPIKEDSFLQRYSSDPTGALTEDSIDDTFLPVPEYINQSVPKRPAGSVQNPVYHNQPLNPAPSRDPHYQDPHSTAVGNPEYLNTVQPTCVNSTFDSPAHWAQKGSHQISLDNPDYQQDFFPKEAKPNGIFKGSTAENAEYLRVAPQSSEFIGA
Property name: IC50 (nM)
Express your answer in nM, writing the number without its unit.

Take a look at these entries with their results.
{"Compound": "CC(O)CSc1nnc(-c2cc3ccccc3[nH]2)n1-c1ccc(Cl)cc1 (stereo not drawn) [13b]", "Measurement unit": "nM", "Value measured": 62.4}
{"Compound": "CC(O)CSc1nnc(-c2cc3ccccc3[nH]2)n1-c1ccccc1 (stereo not drawn) [13a]", "Measurement unit": "nM", "Value measured": 140}

The measured IC50 associated with OCCSc1nnc(-c2cc3ccccc3[nH]2)n1-c1ccc(Cl)cc1 [12b] reads 78.1
